Entry source: paper PMC7414031

Experiment description: in vitro
Format: cell-based, dog
Measurement setup: dog
Square brackets hold non-standard residues; d marks the D form. Peptide text beside a SMILES is read from it. N(1-naphthylmethyl)Gly = O=C(O)CNCc1cccc2ccccc12; Nphe = O=C(O)CNCc1ccccc1; NBuGly = CCCCNCC(=O)O
Measured attribute: hemolysis at 1 h, 150 µM (%)
Give a bare numeral; the unit % is implied.

Would you kindly share the measured hemolysis at 1 h, 150 µM for CCCC[C@H](NC(=O)[C@H](CCCCN)NC(=O)[C@H](CCCCN)NC(=O)[C@@H](N)CCCCN)C(=O)N[C@@H](Cc1ccc2ccccc2c1)C(=O)N[C@@H](Cc1ccc(O)cc1)C(=O)N[C@@H](Cc1ccc2ccccc2c1)C(N)=O [Compound 22] (HELM PEPTIDE1{K.K.K.[Nle].[O=C([C@H](Cc1ccc2ccccc2c1)N[*:1])[*:2]].Y.[O=C([C@H](Cc1ccc2ccccc2c1)N[*:1])[*:2]].[am]}$$$$V2.0) ?
83

Would you kindly share the measured hemolysis at 1 h, 150 µM for CC(C)C[C@@H](NC(=O)[C@H](CCCCN)NC(=O)[C@@H](Cc1ccc2ccccc2c1)NC(=O)[C@@H](Cc1ccccc1)NC(=O)[C@H](N)Cc1ccc2ccccc2c1)C(=O)N[C@@H](CCCCN)C(=O)N[C@@H](CCCCN)C(N)=O [Compound 3] (HELM PEPTIDE1{[N[C@H](Cc1ccc2ccccc2c1)C(=O)[*:2]].[dF].[O=C([C@@H](Cc1ccc2ccccc2c1)N[*:1])[*:2]].K.[dL].K.K.[am]}$$$$V2.0) ?
10.5

Would you kindly share the measured hemolysis at 1 h, 150 µM for CCCCN(CC(=O)N[C@@H](CCCCN)C(=O)N[C@@H](CCCCN)C(=O)N[C@@H](CCCCN)C(N)=O)C(=O)CN(Cc1cccc2ccccc12)C(=O)CN(Cc1ccccc1)C(=O)CNCc1cccc2ccccc12 [Compound 2] (H-[N(1-naphthylmethyl)Gly][Nphe][N(1-naphthylmethyl)Gly][NBuGly]KKK-NH2) ?
100

Would you kindly share the measured hemolysis at 1 h, 150 µM for CC(C)C[C@H](NC(=O)[C@H](Cc1cccc2ccccc12)NC(=O)[C@H](Cc1ccccc1)NC(=O)[C@@H](N)Cc1cccc2ccccc12)C(=O)N[C@@H](CCCCN)C(=O)N[C@@H](CCCCN)C(=O)N[C@@H](CCCCN)C(N)=O [Compound 5] (HELM PEPTIDE1{[N[C@@H](Cc1cccc2ccccc12)C(=O)[*:2]].F.[O=C([C@H](Cc1cccc2ccccc12)N[*:1])[*:2]].L.K.K.K.[am]}$$$$V2.0) ?
22.5

Would you kindly share the measured hemolysis at 1 h, 150 µM for CC(C)C[C@@H](NC(=O)[C@H](CCCCN)NC(=O)[C@@H](Cc1cccc2ccccc12)NC(=O)[C@@H](Cc1ccccc1)NC(=O)[C@H](N)Cc1cccc2ccccc12)C(=O)N[C@@H](CCCCN)C(=O)N[C@@H](CCCCN)C(N)=O [Compound 8] (HELM PEPTIDE1{[N[C@H](Cc1cccc2ccccc12)C(=O)[*:2]].[dF].[O=C([C@@H](Cc1cccc2ccccc12)N[*:1])[*:2]].K.[dL].K.K.[am]}$$$$V2.0) ?
25.8
